Entry source: PubChem BioAssay

assayed_target: Muscarinic acetylcholine receptor M4 (Homo sapiens) (UniProt P08173)
Sequence (P08173 whole entry, looked up): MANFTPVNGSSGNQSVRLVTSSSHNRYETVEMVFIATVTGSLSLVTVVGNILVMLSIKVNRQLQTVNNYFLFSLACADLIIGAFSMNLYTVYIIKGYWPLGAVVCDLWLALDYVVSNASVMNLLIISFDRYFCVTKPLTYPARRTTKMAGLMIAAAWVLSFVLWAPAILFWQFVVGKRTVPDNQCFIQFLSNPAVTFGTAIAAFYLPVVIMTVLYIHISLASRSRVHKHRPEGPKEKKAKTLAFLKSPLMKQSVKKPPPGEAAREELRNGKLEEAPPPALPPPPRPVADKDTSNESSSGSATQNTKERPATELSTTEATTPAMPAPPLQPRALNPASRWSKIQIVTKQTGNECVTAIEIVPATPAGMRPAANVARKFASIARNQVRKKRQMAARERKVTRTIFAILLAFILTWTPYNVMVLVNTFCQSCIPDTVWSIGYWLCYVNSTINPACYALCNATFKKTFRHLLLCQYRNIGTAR
assay_protocol: M4-linked GIRK flux change, two-sided – cell-based, HEK293 M4/GIRK, thallium flux, BTC-AM, M4 allosteric agonist project, primary screen (AID 625);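 also: thallium influx through GIRK channels coupled to M4 in HEK293 cells with BTC-AM dye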
settings: at 10 µM, actives lie on both sides
Activity calls are given as the source filed them.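 The calls were made as follows: active = fluorescence slope after compound addition differing from the mean of all tested samples at 99.7% confidence, mostly higher but some lower; inactive = the rest.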
This section presents compounds with their documented fluorescence slope values.
readout_kind: fluorescence slope

[[record]]
compound = "Cc1[nH]c(=O)[nH]c(=O)c1S(=O)(=O)Nc1ccc(Oc2ccccc2)cc1"
result = "0.00503 (inactive)"

[[record]]
compound = "COc1ccc(N2CCN(C(=O)CN3C(=O)C4CC=CCC4C3=O)CC2)cc1 (stereo unspecified)"
result = "0.00533 (inactive)"

[[record]]
compound = "CCC1Oc2ccccc2N(CC(=O)Nc2ccc(OC)cc2OC)C1=O (stereo unspecified)"
result = "0.00464 (inactive)"

[[record]]
compound = "COC(=O)c1c(NC(=O)C2CC=CCC2C(=O)O)sc(C(N)=O)c1C (stereo unspecified)"
result = "0.00475 (inactive)"

[[record]]
compound = "COc1ccccc1NC(=O)c1nnn(CC(=O)Nc2ccccc2)c1N"
result = "0.00673 (inactive)"

[[record]]
compound = "Cc1nnc(NC2CCCCC2)[nH]c1=O"
result = "0.00733 (inactive)"

[[record]]
compound = "COc1ccccc1NC(=O)N1CCCC1C(=O)NC1CCCCC1 (stereo unspecified)"
result = "0.00721 (inactive)"

[[record]]
compound = "COc1cccc(OC)c1C(=O)N1CCOCC1"
result = "0.00602 (inactive)"

[[record]]
compound = "COc1ccc(-c2noc(CN3C(=O)c4ccccc4C3=O)n2)cc1"
result = "0.00296 (inactive)"

[[record]]
compound = "CCC(Sc1ccc(C(=O)O)cc1)C(=O)O (stereo unspecified)"
result = "0.0053 (inactive)"

[[record]]
compound = "COc1ccc(CN(C(=O)c2ccccc2OC)C2CCS(=O)(=O)C2)cc1 (stereo unspecified)"
result = "0.00303 (inactive)"

